target: serum sample IHUS#B09032311A20; assay: ECL displacement assay, variant competes with tagged SEQ ID NO:1
Recorded % reduction for the following binders
Reported property: % reduction (%)

>>> assay_value("Example 1C: (A14P) (SEQ ID NO: 24) (VHH) VHH: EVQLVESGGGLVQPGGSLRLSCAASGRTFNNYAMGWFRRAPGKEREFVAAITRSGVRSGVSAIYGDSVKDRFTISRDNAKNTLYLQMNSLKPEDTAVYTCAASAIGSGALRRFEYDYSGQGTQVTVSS")
96
>>> assay_value("Example 1C: (A14P, R39Q, K83R, T91Y, Q108L) (SEQ ID NO: 28) (VHH) VHH: EVQLVESGGGLVQPGGSLRLSCAASGRTFNNYAMGWFRQAPGKEREFVAAITRSGVRSGVSAIYGDSVKDRFTISRDNAKNTLYLQMNSLRPEDTAVYYCAASAIGSGALRRFEYDYSGQGTLVTVSS")
97
>>> assay_value("Example 1C: (Q108L) (SEQ ID NO: 26) (VHH) VHH: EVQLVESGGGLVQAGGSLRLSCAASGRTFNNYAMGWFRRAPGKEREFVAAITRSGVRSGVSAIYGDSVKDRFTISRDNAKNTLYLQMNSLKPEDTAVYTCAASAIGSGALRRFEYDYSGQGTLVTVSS")
62
>>> assay_value("Example 1C: wildtype VHH (SEQ ID NO: 23) (VHH) VHH: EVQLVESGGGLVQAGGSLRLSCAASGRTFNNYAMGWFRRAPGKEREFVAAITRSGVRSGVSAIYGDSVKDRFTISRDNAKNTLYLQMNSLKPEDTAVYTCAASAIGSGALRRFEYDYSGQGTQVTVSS")
53
>>> assay_value("Example 1C: (A14P, K83R, Q108L) (SEQ ID NO: 27) (VHH) VHH: EVQLVESGGGLVQPGGSLRLSCAASGRTFNNYAMGWFRRAPGKEREFVAAITRSGVRSGVSAIYGDSVKDRFTISRDNAKNTLYLQMNSLRPEDTAVYTCAASAIGSGALRRFEYDYSGQGTLVTVSS")
97
>>> assay_value("Example 1C: (K83R) (SEQ ID NO: 25) (VHH) VHH: EVQLVESGGGLVQAGGSLRLSCAASGRTFNNYAMGWFRRAPGKEREFVAAITRSGVRSGVSAIYGDSVKDRFTISRDNAKNTLYLQMNSLRPEDTAVYTCAASAIGSGALRRFEYDYSGQGTQVTVSS")
63
